pKd values for the compounds below.
Target protein (sequence): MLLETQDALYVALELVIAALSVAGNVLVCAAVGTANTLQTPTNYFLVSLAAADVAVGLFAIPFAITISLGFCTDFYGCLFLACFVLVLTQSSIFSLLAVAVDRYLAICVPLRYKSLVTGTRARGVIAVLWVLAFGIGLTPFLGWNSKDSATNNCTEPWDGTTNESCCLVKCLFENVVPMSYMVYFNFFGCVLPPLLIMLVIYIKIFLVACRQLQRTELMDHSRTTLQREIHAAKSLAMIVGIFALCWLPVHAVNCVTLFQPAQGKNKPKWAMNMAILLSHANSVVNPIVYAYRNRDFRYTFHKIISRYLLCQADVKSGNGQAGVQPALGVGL
pKd: −log10 of the molar value.

{"compound": "Nc1nsc(-c2ccccc2)n1", "pKd": 3.97}
{"compound": "O=C(NCc1ccccc1)c1ccc2nonc2c1", "pKd": 4.66}
{"compound": "O=c1cc(NCc2ccccc2)nc2ccccn12", "pKd": 3.70}
{"compound": "Fc1ccc(-c2nn3ccccc3c2-c2ccncc2)cc1 [GW434756X]", "pKd": 6.55}
{"compound": "CC(C)n1ncc2cc(C(=O)NCc3ccco3)cnc21", "pKd": 4.10}
{"compound": "CS(=O)(=O)c1ccc(C(=O)Nc2cccc(Cl)c2)cc1", "pKd": 4.71}
{"compound": "Cc1nn(-c2ccccc2)nc1C(N)=O", "pKd": 3.85}
{"compound": "Nc1nsc(-c2ccc(Cl)cc2)n1", "pKd": 4.35}
{"compound": "N#Cc1c(N)nc(SCc2ncc[nH]2)c(C#N)c1-c1ccc(O)cc1", "pKd": 7.11}
{"compound": "Nc1ccc2nnc(-c3ccccc3)n2n1", "pKd": 3.92}

###

Target: Adenosine receptor A2a (Homo sapiens, UniProt P29274)
Sequence (P29274 whole entry): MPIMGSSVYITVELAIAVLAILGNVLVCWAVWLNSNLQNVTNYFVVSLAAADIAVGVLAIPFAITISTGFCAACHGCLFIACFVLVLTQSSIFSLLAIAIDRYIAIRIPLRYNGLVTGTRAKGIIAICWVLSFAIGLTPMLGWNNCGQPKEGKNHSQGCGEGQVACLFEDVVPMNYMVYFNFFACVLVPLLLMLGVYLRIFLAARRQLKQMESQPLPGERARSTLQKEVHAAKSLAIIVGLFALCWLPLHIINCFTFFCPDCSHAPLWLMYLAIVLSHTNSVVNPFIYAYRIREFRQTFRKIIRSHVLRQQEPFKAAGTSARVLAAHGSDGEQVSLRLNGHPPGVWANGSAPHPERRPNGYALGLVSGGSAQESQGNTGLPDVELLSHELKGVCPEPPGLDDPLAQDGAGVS
Experiment: Antagonist activity at human adenosine A2A receptor expressed in HEK293T cells assessed as inhibition of NECA-induced Gs short protein activation by TRUPATH assay

{"smilesStructure": "O=C(Nc1ccc2ccccc2n1)c1ccco1", "measuredTarget": "Adenosine receptor A2a (Homo sapiens, UniProt P29274)", "IC50, nM": 166}

###

Here's a batch of molecules along with measured log10 of Kd for Adenosine receptor A3 (Homo sapiens).
metricName: log10 of Kd (log10 of the value in µM)

{"molecule": "CC(C)NC(=O)c1cc(-c2ccccc2)[nH]n1", "measuredTarget": "Adenosine receptor A3 (Homo sapiens)", "metricName": "log10 of Kd", "result": 1.90}
{"molecule": "Nc1nsc(-c2ccccc2)n1", "measuredTarget": "Adenosine receptor A3 (Homo sapiens)", "metricName": "log10 of Kd", "result": 2.01}
{"molecule": "O=C(NCc1ccccc1)c1ccc2nonc2c1", "measuredTarget": "Adenosine receptor A3 (Homo sapiens)", "metricName": "log10 of Kd", "result": 2.26}
{"molecule": "O=C(Nc1ccc2ccccc2n1)c1ccco1", "measuredTarget": "Adenosine receptor A3 (Homo sapiens)", "metricName": "log10 of Kd", "result": 1.75}
{"molecule": "Cn1c(=O)[nH]c2ccccc2c1=O", "measuredTarget": "Adenosine receptor A3 (Homo sapiens)", "metricName": "log10 of Kd", "result": 1.28}
{"molecule": "Fc1ccc(-c2nn3ccccc3c2-c2ccncc2)cc1 [GW434756X]", "measuredTarget": "Adenosine receptor A3 (Homo sapiens)", "metricName": "log10 of Kd", "result": -0.13}
{"molecule": "O=c1cc(NCc2ccccc2)nc2ccccn12", "measuredTarget": "Adenosine receptor A3 (Homo sapiens)", "metricName": "log10 of Kd", "result": 2.30}
